Tested on: P 388 leukemia
Test Description: in vivo activity against P 388 leukemia (treatment i.p. on day 1 after tumor implantation)
Condition Info: 6.6 mg/kg
Measured Metric: LTS (long term survivors)

Record excerpt, results attached:
| Compound | Target | LTS (long term survivors) |
| --- | --- | --- |
| COc1cccc2c1C(=O)c1c(O)c3c(c(O)c1C2=O)C[C@@](O)(C(=O)CO)C[C@@H]3O[C@H]1C[C@@H](N)[C@@H](OC)[C@H](C)O1 [3',4'-diepi-4'-O-methyl doxorubicin, 3',4'-diepi-4'-O-methyl-doxorubicin] | P 388 leukemia | 0/10 |
| COc1cccc2c1C(=O)c1c(O)c3c(c(O)c1C2=O)C[C@@](O)(C(C)=O)C[C@@H]3O[C@H]1C[C@@H](N)[C@@H](OC)[C@H](C)O1 [3',4'-diepi-4'-O-methyl daunorubicin, 3',4'-diepi-4'-O-methyl-daunorubicin] | P 388 leukemia | 0/8 |
| COc1cccc2c1C(=O)c1c(O)c3c(c(O)c1C2=O)C[C@@](O)(C(C)=O)C[C@@H]3O[C@H]1C[C@H](N)[C@H](O)[C@H](C)O1 [Daunorubicin, reference compound] | P 388 leukemia | 0/8 |

Param item = COc1cccc2c1C(=O)c1c(O)c3c(c(O)c1C2=O)C[C@@](O)(C(=O)CO)C[C@@H]3O[C@H]1C[C@H](N)[C@H](O)[C@H](C)O1 [Doxorubicin, reference compound] ; retrieve measured LTS (long term survivors).
0/10
